Where do the numbers come from? From patent US20240376073A1.

# Test system: Acinetobacter baumannii ATCC17961
# assayNotes: Antimicrobial susceptibility testing: 90% growth inhibitory concentration (IC90) determination
# Type: cell-based
# experimentalParameters: Acinetobacter baumannii ATCC17961; Iso-Sensitest broth; growth by OD 600 nm over 16 h; 35±2° C.; read-out: ATCC 17961 IC90
Counter-ions that a name gives are not always drawn.
I'd appreciate it if you marked entries label 1 when IC90 is lower than 300 nM and label 0 when it is not.

[
  {
    "compound": "CCc1cc(NC(=O)c2ncc(-c3ccc(OC(F)F)c(F)c3F)n2C)ccc1C(=O)N1CCN(C(=O)C2CC[N+](C)(CC3CNC3)CC2)CC1 (centres unmarked)",
    "labelClass": "label 1"
  },
  {
    "compound": "COc1ccc(-c2cnc(C(=O)Nc3ccc(C(=O)N4CCN(C(=O)C5CCN(C(=O)C[N+](C)(C)CC(N)=O)CC5)CC4)c(Cl)c3)n2C)c(F)c1F",
    "labelClass": "label 1"
  },
  {
    "compound": "Cn1c(-c2ccc(OCF)c(F)c2F)cnc1C(=O)Nc1ccc(C(=O)N2CCN(C(=O)[C@H]3[C@@H]4C[N+](C)(CC(=O)O)C[C@@H]43)CC2)c(Cl)c1 (mixture of isomers)",
    "labelClass": "label 0"
  },
  {
    "compound": "Cn1c(-c2ccc(OC(F)F)c(F)c2)cnc1C(=O)Nc1ccc(C(=O)N2CCN(C(=O)C[N+](C)(C)C)CC2)c(Cl)c1 [Example B15, formate]",
    "labelClass": "label 1"
  },
  {
    "compound": "Cn1c(-c2ccc(OCC#N)c(F)c2F)cnc1C(=O)Nc1ccc(C(=O)N2CCN(C(=O)[C@@H]3C[C@](C)(O)C[N+]3(C)C)CC2)c(Cl)c1 [Example B27, formate]",
    "labelClass": "label 1"
  }
]

* * *

# System: Acinetobacter baumannii ATCC17961
# assayNotes: Antimicrobial susceptibility testing: 90% growth inhibitory concentration (IC90) determination
# Format: cell-based
# experimentalParameters: Acinetobacter baumannii ATCC17961; Iso-Sensitest broth; growth by OD 600 nm over 16 h; 35±2° C.; read-out: ATCC 17961 IC90
Where a name gives a salt, the structure may show the parent alone.
# key: entry, value: log10 of IC90
measuredParameter: log10 of IC90 (log10 of the value in nM)

[
  {
    "compound": "COc1ccc(-c2cnc(C(=O)Nc3ccc(C(=O)N4C[C@H]5CN(C(=O)C[N+](C)(C)C)C[C@H]5C4)c(Cl)c3)n2C)c(F)c1F [Example B19, formate]",
    "measuredParameter": "log10 of IC90",
    "measured": 2.49
  },
  {
    "compound": "Cn1c(-c2ccc(OC(F)F)c(F)c2Cl)cnc1C(=O)Nc1ccc(C(=O)N2CCN(C(=O)[C@@H]3C[C@@H](O)C[N+]3(C)C)CC2)c(Cl)c1",
    "measuredParameter": "log10 of IC90",
    "measured": 1.96
  },
  {
    "compound": "COc1ccc(-c2cnc(C(=O)Nc3ccc(C(=O)N4CCN(C(=O)C[N+]5(C)CCCC5)CC4)c(Cl)c3)n2C)c(F)c1F",
    "measuredParameter": "log10 of IC90",
    "measured": 2.11
  },
  {
    "compound": "COc1ccc(-c2cnc(C(=O)Nc3ccc(C(=O)N4CCC(NC(=O)C[N+](C)(C)CC(N)=O)CC4)c(Cl)c3)n2C)c(F)c1F",
    "measuredParameter": "log10 of IC90",
    "measured": 2.08
  },
  {
    "compound": "COc1ccc(-c2cnc(C(=O)Nc3ccc(C(=O)N4CCN(C(=O)CCC[N+](CCCN)(CCCN)CC(=O)O)CC4)c(Cl)c3)n2C)c(F)c1F [Example C34, formate]",
    "measuredParameter": "log10 of IC90",
    "measured": 2.76
  },
  {
    "compound": "CCc1cc(NC(=O)c2ncc(-c3ccc(OC(F)F)c(F)c3F)n2C)ccc1C(=O)N1CCN(C(=O)C2CC[N+](CC(N)=O)(CC3CNC3)CC2)CC1 (stereo not drawn)",
    "measuredParameter": "log10 of IC90",
    "measured": 2.34
  },
  {
    "compound": "COc1ccc(-c2cnc(C(=O)Nc3ccc(C(=O)NCc4cnc(NC(=O)C5CCC[N+]5(C)C)s4)c(Cl)c3)n2C)c(F)c1F (stereo not drawn)",
    "measuredParameter": "log10 of IC90",
    "measured": 1.94
  },
  {
    "compound": "Cn1c(-c2ccc(OC(F)F)c(F)c2F)cnc1C(=O)Nc1ccc(C(=O)N2CCN(C(=O)C[N+]3(C)CCC(C(N)=O)C3)CC2)c(Cl)c1 (stereo not drawn)",
    "measuredParameter": "log10 of IC90",
    "measured": 1.84
  },
  {
    "compound": "Cn1c(-c2ccc(OC(F)F)c(F)c2F)cnc1C(=O)Nc1ccc(C(=O)N2CCN(C(=O)CC3CC[N+](C)(CC4CCNC4)C3)CC2)c(Cl)c1 (stereo not drawn)",
    "measuredParameter": "log10 of IC90",
    "measured": 2.34
  },
  {
    "compound": "COc1ccc(-c2cnc(C(=O)Nc3ccc(C(=O)NCc4cnc(NC(=O)C5CC[N+](C)(CC(N)=O)CC5)s4)c(Cl)c3)n2C)c(F)c1F (stereo not drawn) [Example A30, formate]",
    "measuredParameter": "log10 of IC90",
    "measured": 2.15
  },
  {
    "compound": "COc1ccc(-c2cnc(C(=O)Nc3ccc(C(=O)N4CCN(C(=O)C5CCN(C(=O)C[N+](C)(C)C)CC5)CC4)c(Cl)c3)n2C)c(F)c1F",
    "measuredParameter": "log10 of IC90",
    "measured": 2.20
  },
  {
    "compound": "Cn1c(-c2ccc(OC(F)F)c(Cl)c2F)cnc1C(=O)Nc1ccc(C(=O)N2CCN(C(=O)[C@@H]3C[C@@H](O)C[N+]3(C)C)CC2)c(Cl)c1",
    "measuredParameter": "log10 of IC90",
    "measured": 1.59
  }
]
